Examples of sequences with documented phosphorylation enrichment follow.
tested on: AncSZ; test: phosphorylation enrichment, bacterial display (enrichment ratio); higher = better substrate or ligand; peptides without Tyr show the background;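 note: 11-residue human phosphosite peptides and single-mutation variants displayed on the E. coli surface, counted by deep sequencing, each peptide's frequency after selection divided by its frequency in the unselected input library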;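 note: frequency after pTyr selection over input frequency; kinase dosed for 20-30% of maximal phosphorylation in three min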
Respond using a number only.

These solved cases illustrate the format of a correct answer.
# MACROMOLECULE_SEQUENCE, phosphorylation enrichment
rows = [
    ("CTTIHYNYRCN [TP53_Y234_M237R]", 0.797),
    ("DNEYAYLKAII [HNF4A_Y288]", 1.27),
    ("SVVVPFEPPEV [TP53_Y220_Y220F]", 1.04),
    ("EWLRRHLENGK [HLA-A_Y195_Y195H]", 0.578),
]

Prompt: Which phosphorylation enrichment value is on record for AKFPFYEKNKK [FOXL2_Y91] ?
Completion: 0.589

Prompt: For the sequence shown here, VQDPAYLRDID [OPRK1_Y369] , give the reported phosphorylation enrichment.
Completion: 1.16

Prompt: # lookup: phosphorylation enrichment of IGMFSYVMLAS [GGCX_Y301]
Completion: 1.21

Prompt: phosphorylation enrichment lookup needed for YRQNGYIPGSN [PCDHGA1_Y895_V894G] , thanks.
Completion: 0.485

Prompt: Record request: phosphorylation enrichment value, item RVILRYVNPGN [LAMA3_Y791_T796N]
Completion: 1.47

Prompt: Reported phosphorylation enrichment for PPGRSYSPFDF [TNS1_Y793_YF] : what is it?
Completion: 0.824

Prompt: Recorded phosphorylation enrichment for YFVVEYRNQKP [MUC17_Y4332_D4334N] , please?
Completion: 1.72

Prompt: Record request: phosphorylation enrichment value, item NFGTNYRVGSS [CPO_Y278_K273N_YF]
Completion: 0.602

Prompt: Look at this sequence and give its reported phosphorylation enrichment. LENSTYQFIRV [CRB1_Y760_YF]
Completion: 1.36

Prompt: Report phosphorylation enrichment for LHRAHYDLHHT [AHSG_Y314_R317H] please.
Completion: 0.836

Source: the supplement of paper PMC10065799
